READOUT NAME: melting point

Please review the following examples before continuing.
COMPOUND	melting point
O=Cc1cc2ccsc2c2ccccc12	96 to 96.5 °C
CCc1c(-c2ccc(OCc3ccccc3)cc2)c2cc(CO)c3cccc1n32	148 to 150 °C
COC(=O)c1ccccc1NC(=O)N1CCc2cc(S(=O)(=O)N3CCN(c4cccc(Cl)c4)CC3)ccc21	230 °C
CCN(C(C)=O)c1cccc(-c2ccnc3c([N+](=O)[O-])cnn23)c1	176 to 178 °C
O=C(O)c1cc(OCCOc2cccc3ccccc23)cc(OCCOc2cccc3ccccc23)c1	213 to 215 °C

Lookup: Returns the measured melting point for the input compound. Input: O=C(N[C@H](Cc1cccc(OCC(F)(F)F)c1)[C@@H](O)c1ccc(F)cc1)c1cccc2c1C=CCCC2 (racemic)
Found: 172 to 173 °C

Lookup: Returns the measured melting point for the input compound. Input: CC(=O)c1c(C)oc2c(-n3c(=O)cc(C(F)(F)F)n(C)c3=O)c(F)cc(Cl)c12
Found: 138 to 140 °C

Lookup: Returns the measured melting point for the input compound. Input: O=S(=O)(O)c1cc(O)ccc1O
Found: 164 to 167 °C

Lookup: Returns the measured melting point for the input compound. Input: COCc1ccc(C(=O)OC)cn1
Found: 33 °C

###

READOUT NAME: melting point

Please review the following examples before continuing.
MOLECULE	melting point
Cc1onc(NS(=O)(=O)c2ccc([N+](=O)[O-])cc2)c1Br	161 to 163 °C
Cc1cc2c(cc1Cl)NC(=O)CC(c1cccc(-c3ccnc(CNC4CC4)c3)c1)=N2	171 °C
Cc1ccc(-c2cc(CO)nn2-c2ccc(S(N)(=O)=O)cc2)cc1	166 to 169 °C

Would you kindly look at the next entry?
Lookup: Returns the measured melting point for the input molecule. Input: CC(=O)c1ccc(/C=C(\C)c2ccc3c(c2)C(C)(C)CC3(C)C)cc1
Found: 130 to 131 °C

###

READOUT NAME: melting point

Please review the following examples before continuing.
COMPOUND	EXPERIMENTAL RESULT
Fc1ccc(Cn2c(NC3CCN(CCc4cn5ccccc5n4)CC3)nc3ccccc32)cc1	208 °C
Cc1nc(NC2CCCC2O)c2ncn(C3OC(CO)C(O)C3O)c2n1 (stereo not given)	188 to 192 °C

Lookup: Returns the measured melting point for the input compound. Input: COc1ccc(-c2nc3ccc(C(C)(C)CNC=O)cc3[nH]2)cn1
Found: 217 to 221 °C

Lookup: Returns the measured melting point for the input compound. Input: COc1ccc(NC(=O)c2ccccc2)cc1NCc1ccc2c(c1)OCCO2
Found: 174 to 175 °C

Lookup: Returns the measured melting point for the input compound. Input: Nc1c(F)c(F)cc2c1c(=O)c(C(=O)O)cn2C1CC1
Found: > 300 °C

Lookup: Returns the measured melting point for the input compound. Input: O=C(CCl)Nc1ccc2c(c1NC(=O)CSc1ccccc1)C(=O)c1ccccc1C2=O
Found: 161 to 162 °C

Lookup: Returns the measured melting point for the input compound. Input: CCOC(=O)c1cc2cc(NS(=O)(=O)CCCCl)ccc2[nH]1
Found: 195 to 196 °C

###

READOUT NAME: melting point

Please review the following examples before continuing.
COMPOUND	melting point
CCC(=C(c1ccc(O)cc1)c1ccc(OCCN(C)C)cc1)c1ccccc1	114 to 117 °C
Cc1ccc(-c2nc(C)cc(Oc3ccccc3)n2)cc1	90 to 91 °C
CCCc1nc2c(N)nc3ccccc3c2n1CCCCCS(C)(=O)=O	179 to 181 °C
CN1CCc2ccccc2C1=NNC(=O)Nc1ccc(C(F)(F)F)cc1	101 to 104 °C
COC(=O)CCc1cnoc1-c1ccc(Cl)c(Br)c1	54 to 55 °C

Lookup: Returns the measured melting point for the input compound. Input: CCCCC(O)(COc1ccc(C(=O)O)c(O)c1)c1ccc2c(c1)C(C)(C)CCC2(C)C (stereo not given)
Found: 142 to 143 °C

Lookup: Returns the measured melting point for the input compound. Input: Cc1cc(C)cc(C(=O)NC(C#N)n2cccn2)c1 (stereo not given)
Found: 180 to 183 °C

Lookup: Returns the measured melting point for the input compound. Input: C(#Cc1ccsc1)C1=CCN(Cc2c[nH]c3ncccc23)CC1
Found: 203 to 205 °C

Lookup: Returns the measured melting point for the input compound. Input: CCN(CC)C(=O)CO/N=C(\C(=O)O)c1csc(N)n1
Found: 180 °C

Lookup: Returns the measured melting point for the input compound. Input: Nc1ccc(S(=O)(=O)Nc2ccn(C3CCCC3)c(=O)n2)cc1
Found: 167 to 171 °C

Lookup: Returns the measured melting point for the input compound. Input: CN1Cc2ccccc2C(=O)c2cc(CC(=O)NO)ccc21
Found: 137 to 141 °C

Lookup: Returns the measured melting point for the input compound. Input: O=C(NC(=NCCCc1c[nH]cn1)NCCSCc1csc(N=C2NCCCN2)n1)c1ccccc1
Found: 175 to 176 °C

Lookup: Returns the measured melting point for the input compound. Input: NC(N)=NC(=O)Cc1c(-c2ccccc2)csc1-c1ccccc1
Found: 204 to 206 °C

Lookup: Returns the measured melting point for the input compound. Input: OCCc1ccc2c(c1)C(O)c1ccccc1CO2 (stereo not given)
Found: 135 to 137 °C
